Molecular target: Full-length human glucagon-like peptide 1 receptor (human, UniProt P43220 24-463)
Assay: cell-based or functional assay
*1 amine or outer side, *2 acyl side, *3 side chain or, on linkers, in order; H or OH if unused. Primed or numbered codes have the meaning given here. Where no end group is shown, it is not given here. [ ]: non-standard residue; d: D form. The star is where a group is joined. X1 = 4‑(2′-methylphenyl)‑3‑pyridylalanine, Cc1ccccc1-c1ccncc1C[C@H](N[*:1])C(=O)[*:2]; Bip(2′-Et-4′-OH-5′-I) = CCc1cc(O[*:3])c(I)cc1-c1ccc(C[C@H](N[*:1])C(=O)[*:2])cc1; Phe(4-(2-Et-4-HO-Ph)) = CCc1cc(O)ccc1-c1ccc(C[C@H](N)C(=O)O)cc1; IMeOp = 3-(1H-imidazol-4-yl)-2-methoxypropanoyl; αMePhe(2-F) = C[C@](N)(Cc1ccccc1F)C(=O)O; αMeP = C[C@@]1(C(=O)O)CCCN1; Moc = COC(=O)*
Catalogue of binders with associated Mean EC50 (nM), stimulation of cAMP synthesis in CHO cells
MEASURED_ENDPOINT: Mean EC50 (nM), stimulation of cAMP synthesis in CHO cells

>>> experimental_value("Moc-H[αMeP]EGT[αMePhe(2-F)]TSD[Phe(4-(2-Et-4-HO-Ph))][X1]-NH2 [Compound of SEQ ID NO: 158]")
0.018
>>> experimental_value("Moc-H[αMeP]EGT[αMePhe(2-F)]TSD[Bip(2′-Et-4′-OH-5′-I)][X1]-NH2 [Compound of SEQ ID NO: 164]")
0.01
>>> experimental_value("[IMeOp][αMeP]EGT[αMePhe(2-F)]THD[Phe(4-(2-Et-4-HO-Ph))][X1]-NH2 (also: IMeOp configuration (R or S) not determined) [Compound of SEQ ID NO: 175 (or 176)*]")
0.03
>>> experimental_value("Moc-H[αMeP]EGT[αMePhe(2-F)]THD[Phe(4-(2-Et-4-HO-Ph))][X1]-NH2 [Compound of SEQ ID NO: 157]")
0.026
>>> experimental_value("[IMeOp][αMeP]EGT[αMePhe(2-F)]TSD[Phe(4-(2-Et-4-HO-Ph))][X1]-NH2 (also: IMeOp configuration (R or S) not determined) [Compound of SEQ ID NO: 173 (or 174)*]")
0.018
>>> experimental_value("[IMeOp][αMeP]EGT[αMePhe(2-F)]THD[Phe(4-(2-Et-4-HO-Ph))][X1]-NH2 (also: IMeOp configuration (S or R) not determined) [Compound of SEQ ID NO: 176 (or 175)*]")
0.03
>>> experimental_value("[IMeOp][αMeP]EGT[αMePhe(2-F)]TSD[Phe(4-(2-Et-4-HO-Ph))][X1]-NH2 (also: IMeOp configuration (S or R) not determined) [Compound of SEQ ID NO: 174 (or 173)*]")
0.024
